Measured CC50 at 48 h accompanies every entry in the list below.
experiment: Cytotoxicity against human THP1 cells after 48 hrs by propidium iodide and SYBR14 satining-base flow cytometry; format: cell-based; conditions: THP-1 cells

Recorded results for 4 compounds are shown here.
CCCCCN(CCO)c1c([N+](=O)[O-])cc(C(F)(F)F)cc1[N+](=O)[O-]
> 50 µM
CCCCCCCCCCCCCCCCOP(=O)([O-])OCC[N+](C)(C)C [MILTEFOSINE]
28.6 µM
O=[N+]([O-])c1cc(C(F)(F)F)cc([N+](=O)[O-])c1N1CCCCC1
> 50 µM
CCCCN(CCO)c1c([N+](=O)[O-])cc(C(F)(F)F)cc1[N+](=O)[O-]
> 50 µM

Give a short answer stating reported CC50 at 48 h for CCCCCCN(CCO)c1c([N+](=O)[O-])cc(C(F)(F)F)cc1[N+](=O)[O-] . 10 µM

Give a short answer stating reported CC50 at 48 h for O=[N+]([O-])c1cc(C(F)(F)F)cc([N+](=O)[O-])c1NC1CCCCC1 . > 50 µM

Check the records and state CC50 at 48 h for O=[N+]([O-])c1cc(C(F)(F)F)cc([N+](=O)[O-])c1N1CCOCC1 > 50 µM

// fetch CC50 at 48 h given entry O=[N+]([O-])c1cc(C(F)(F)F)cc([N+](=O)[O-])c1Nc1cccc(O)c1 35 µM

Output CC50 at 48 h of O=[N+]([O-])c1cc(C(F)(F)F)cc([N+](=O)[O-])c1Nc1ccccc1O > 50 µM

Give the reported value of CC50 at 48 h for this record: CCCN(CCC)c1c([N+](=O)[O-])cc(C(F)(F)F)cc1[N+](=O)[O-] [TRIFLURALIN] > 50 µM

Read off the recorded CC50 at 48 h for CCCN(CCO)c1c([N+](=O)[O-])cc(C(F)(F)F)cc1[N+](=O)[O-] > 50 µM

Entry O=[N+]([O-])c1cc(C(F)(F)F)cc([N+](=O)[O-])c1Nc1ccc(O)cc1 needs its CC50 at 48 h filled in; supply it. 40 µM

Provide only the value of recorded CC50 at 48 h for CN(C)c1c([N+](=O)[O-])cc(C(F)(F)F)cc1[N+](=O)[O-] > 50 µM

Supply measured CC50 at 48 h of CCN(CCO)c1c([N+](=O)[O-])cc(C(F)(F)F)cc1[N+](=O)[O-] in your reply. > 50 µM

###

assay: Cytotoxicity against human RBC assessed as hemolysis at 100 uM after 1 hr by microplate reader method; assay type: cell-based, Erythrocyte; conditions: red blood cells (RBC), read-out: Activity
Entries and their hemolysis at 1 h, 100 µM
Enter the number, and then the unit.

Below, each entry is followed by its recorded hemolysis at 1 h, 100 µM result.
CCCCN(CCO)c1c([N+](=O)[O-])cc(C(F)(F)F)cc1[N+](=O)[O-]
0.5%
CCCN(CCO)c1c([N+](=O)[O-])cc(C(F)(F)F)cc1[N+](=O)[O-]
0.2%
O=[N+]([O-])c1cc(C(F)(F)F)cc([N+](=O)[O-])c1Nc1ccccc1O
1.2%
O=[N+]([O-])c1cc(C(F)(F)F)cc([N+](=O)[O-])c1N1CCCCC1
1.2%
O=[N+]([O-])c1cc(C(F)(F)F)cc([N+](=O)[O-])c1Nc1ccc(O)cc1
1.4%
O=[N+]([O-])c1cc(C(F)(F)F)cc([N+](=O)[O-])c1NC1CCCCC1
1.1%
CN(C)c1c([N+](=O)[O-])cc(C(F)(F)F)cc1[N+](=O)[O-]
0%
CCN(CCO)c1c([N+](=O)[O-])cc(C(F)(F)F)cc1[N+](=O)[O-]
0.4%

Next up:
Note down hemolysis at 1 h, 100 µM recorded for O=[N+]([O-])c1cc(C(F)(F)F)cc([N+](=O)[O-])c1Nc1cccc(O)c1 1.4%

###

experiment: Cytotoxicity against human RBC assessed as hemolysis after 1 hr by microplate reader method; format: cell-based, Erythrocyte; details: red blood cells (RBC)
Property name: HC50 at 1 h

See these solved cases before continuing.
CN(C)c1c([N+](=O)[O-])cc(C(F)(F)F)cc1[N+](=O)[O-]
> 100 µM
O=[N+]([O-])c1cc(C(F)(F)F)cc([N+](=O)[O-])c1N1CCCCC1
> 100 µM
O=[N+]([O-])c1cc(C(F)(F)F)cc([N+](=O)[O-])c1NC1CCCCC1
> 100 µM

Give the reported value of HC50 at 1 h for this record: CCCCCN(CCO)c1c([N+](=O)[O-])cc(C(F)(F)F)cc1[N+](=O)[O-] > 100 µM

Answer with the recorded HC50 at 1 h for the molecule listed here: CCCN(CCC)c1c([N+](=O)[O-])cc(C(F)(F)F)cc1[N+](=O)[O-] > 100 µM

###

tested on: Leishmania infantum; experiment: Antileishmanial activity against Leishmania infantum A1 amastigotes infected in human THP1 cells assessed as reduction in intracellular parasite load after 48 hrs by Giemsa staining; type: functional, organism-based; conditions: A1, THP-1, 48 h
Recorded measurements of IC50, one per entry
Supply the numeric figure in nM, leaving out any unit text.

O=[N+]([O-])c1cc(C(F)(F)F)cc([N+](=O)[O-])c1Nc1ccccc1O
1100
O=[N+]([O-])c1cc(C(F)(F)F)cc([N+](=O)[O-])c1Nc1cccc(O)c1
2200

Then there is this compound:
Retrieve IC50 measured for O=[N+]([O-])c1cc(C(F)(F)F)cc([N+](=O)[O-])c1N1CCOCC1 and print it. 500

###

experiment: Aqueous solubility in water by UV spectrophotometry; details: buffer
Class satisfied: solubility at least 10 ppm. Class not satisfied: solubility below 10 ppm.

Some solved cases for reference:
O=[N+]([O-])c1cc(C(F)(F)F)cc([N+](=O)[O-])c1Nc1ccc(O)cc1
satisfied
O=[N+]([O-])c1cc(C(F)(F)F)cc([N+](=O)[O-])c1NC1CCCCC1
not satisfied
O=[N+]([O-])c1cc(C(F)(F)F)cc([N+](=O)[O-])c1Nc1ccccc1O
satisfied
CN(C)c1c([N+](=O)[O-])cc(C(F)(F)F)cc1[N+](=O)[O-]
not satisfied

Record CCCN(CCC)c1c([N+](=O)[O-])cc(C(F)(F)F)cc1[N+](=O)[O-] ; criterion: solubility no lower than 10 ppm. Met? not satisfied

Entry O=[N+]([O-])c1cc(C(F)(F)F)cc([N+](=O)[O-])c1N1CCOCC1 : is its solubility no less than 10 ppm? satisfied

###

Recorded IC50 for the following compounds
system: Leishmania infantum; assay: Antileishmanial activity against Leishmania infantum A1 amastigotes infected in human THP1 cells assessed as reduction in intracellular parasite load after 48 hrs by Giemsa staining; format: functional, organism-based; conditions: A1, THP-1, 48 h
The figure you give is taken to be in µM; do not add the unit.

Below, each entry is followed by its recorded IC50 result.
CN(C)c1c([N+](=O)[O-])cc(C(F)(F)F)cc1[N+](=O)[O-]
7.3
CCCCCCCCCCCCCCCCOP(=O)([O-])OCC[N+](C)(C)C
2.7
CCCCN(CCO)c1c([N+](=O)[O-])cc(C(F)(F)F)cc1[N+](=O)[O-]
1.2
O=[N+]([O-])c1cc(C(F)(F)F)cc([N+](=O)[O-])c1NC1CCCCC1
9.1

--- query ---
Enter recorded IC50 with Leishmania infantum for O=[N+]([O-])c1cc(C(F)(F)F)cc([N+](=O)[O-])c1Nc1ccc(O)cc1 here. 1.8

###

assay: Aqueous solubility in water by UV spectrophotometry; conditions: buffer
Measured solubility by item
Give a bare numeral; the unit ppm is implied.

Some solved entries appear below for comparison.
CCCCN(CCO)c1c([N+](=O)[O-])cc(C(F)(F)F)cc1[N+](=O)[O-]
22.6
CCCCCN(CCO)c1c([N+](=O)[O-])cc(C(F)(F)F)cc1[N+](=O)[O-]
6
CCCCCCN(CCO)c1c([N+](=O)[O-])cc(C(F)(F)F)cc1[N+](=O)[O-]
5.7
CCCN(CCO)c1c([N+](=O)[O-])cc(C(F)(F)F)cc1[N+](=O)[O-]
72.3
O=[N+]([O-])c1cc(C(F)(F)F)cc([N+](=O)[O-])c1N1CCCCC1
0.8
CCN(CCO)c1c([N+](=O)[O-])cc(C(F)(F)F)cc1[N+](=O)[O-]
157.4

Turning to the following compound.
Quickly give me recorded solubility for O=[N+]([O-])c1cc(C(F)(F)F)cc([N+](=O)[O-])c1Nc1cccc(O)c1 9.5
